# Test target: human CD3e (T-cell surface glycoprotein CD3 epsilon chain) (human, UniProt P07766 23-207)
# Measurement notes: cell-based or functional assay
Observation type: EC50, luciferase of Jurkat-Luc-NFAT cells; purified antibody
# number then unit; no other words

Given the binder 10A4-H1K1-IgG1-LALA (antibody, V domains shown, Humanized; human IgG1 with LALA mutations; also called H1K1 (humanized 10A4)) VH: QVQLVQSGAEVKKPGASVKVSCKASGYTFTSYYIHWVRQAPGQRLEFIGWIYPGNVNAKYNEKFKGRVTITTDKSASTAYMELSSLRSEDTAVYYCAIKGGNYDWGQGTLVTVSS VL: DVVMTQSPLSLPVTLGQPASISCQSSQSLLDSDGKTYLNWLQQRPGQSPRRLIYLVSKLGSGVPDRFSGSGSGTDFTLKISRVEAEDVGVYYCWQGTHFPRTFGGGTKVEIK , what is its reported EC50, luciferase of Jurkat-Luc-NFAT cells; purified antibody? 0.524 µg/mL
